Value source: patent US6124078A

Catalogue of Storage stability readings, one per entry.
Assay: Storage stability of photo-recording material (60° C., 200 hours, light-shielded)
Type: physicochemical
Conditions: (density after storage/initial density)×100, packed with black paper
Source text: The binder resin composition containing the photo-decoloring dye used for making sample 3-1 was coated on a polyethylenenaphthalate base having thickness of 4.0 μm by using a wire bar in a coating amount of 2.5 g/m^2 after drying so as to obtain a photo-recording material consisting of a photo-decoloring layer on the polyethylenenaphthalate film. […]
Expressed in %, but write only the number.

COMPOUND	Storage stability (%)
CCCCc1nnc2c(=Cc3cc(Cl)c(O)c(Cl)c3)c(C(C)(C)C)nn12 [B]	20

Attention now shifts to the item below.
Prompt: # query: Storage stability of entry CCCCCCCCCCCCS(=O)(=O)CCCc1nnc2c(=Cc3cc(Cl)c(O)c(Cl)c3)c(C(C)(C)C)nn12 [compound 58]
Response: 80

----------
test: Storage stability of photo-recording material (60° C., 200 hours, light-shielded); type: physicochemical; settings: (density after storage/initial density)×100, packed with black paper
RESULT_TYPE: Storage stability (%)
The reply should be a number in %, with the unit left off.

Use these answered entries as a reference point.
COMPOUND	RESULT_TYPE	VALUE_OBSERVED
CCCCCCCCCCCCC(Oc1ccc(OC(C)=O)c(C(C)(C)C)c1)C(=O)NCCc1nnc2n1N=C(C)C2=Nc1cc(Cl)c(O)c(Cl)c1 (stereo not drawn)	Storage stability	85
CN1/C(=C\C=C\C2=[N+](C)c3ccccc3C2(C)C)C(C)(C)c2ccccc21	Storage stability	15
CCC(Oc1ccc(C(C)(C)CC)cc1C(C)(C)CC)C(=O)NCCC(C)c1nnc2n1N=C(C(C)(C)C)C2=Nc1cc(Cl)c(O)c(Cl)c1 (stereo not drawn)	Storage stability	80
CCCCC(Oc1ccc(C(C)(C)CC)cc1C(C)(C)CC)C(=O)Nc1ccc2nc3n(c2c1)N=C(C)C3=Nc1cc(Cl)c(O)c(Cl)c1 (stereo not drawn)	Storage stability	90
CCCCCCCCCCCCS(=O)(=O)CCCc1nnc2n1N=C(C(C)(C)C)C2=Nc1cc(Cl)c(O)c(Cl)c1	Storage stability	88

Prompt: So what does the record say about Storage stability for `CCCCCCCCCCCCS(=O)(=O)NCCc1nc2c(=Cc3cc(Cl)c(O)c(Cl)c3)c(C(C)(C)C)nn2n1` ?
Response: 82

Prompt: Give the measured Storage stability of `CCCCCCCCCCCCOc1ccc(S(=O)(=O)NCC(C)(C)c2nnc3n2N=C(C(C)(C)C)C3=Nc2cc(Cl)c(O)c(Cl)c2)cc1` .
Response: 75

Prompt: Returns the measured Storage stability for the input compound. Input: `CCN(CC)c1ccc(N=C2C(=O)N(c3ccccc3)N=C2C)cc1`
Response: 80

Prompt: Consider the compound `CCC(C)(C)c1ccc(OCC(=O)Nc2ccnc(-c3cnc4n3N=C(C(C)(C)C)C4=Nc3cc(Cl)c(O)c(Cl)c3)c2)c(C(C)(C)CC)c1` and give its measured Storage stability.
Response: 77

Prompt: Consider the compound `CCN(CC)c1ccc(N=C2C=CC(=O)c3ccccc32)cc1` and give its measured Storage stability.
Response: 85

Prompt: I have this compound here, `CCCCc1nnc2n1N=C(C(C)(C)C)C2=Nc1ccc(O)cc1` , and I need its recorded Storage stability.
Response: 18

Prompt: // returns reported Storage stability for input `CCN(CC)c1ccc(N=C(C(C)=O)C(=O)Nc2ccccc2)c(C)c1`
Response: 95
